src = patent US20240109917A1

Below are compounds with their pIC50 as measured on His6-TEV-PDGFRβ (557-1016) (Homo sapiens (Human), UniProt P09619).
Sequence (P09619 557-1016): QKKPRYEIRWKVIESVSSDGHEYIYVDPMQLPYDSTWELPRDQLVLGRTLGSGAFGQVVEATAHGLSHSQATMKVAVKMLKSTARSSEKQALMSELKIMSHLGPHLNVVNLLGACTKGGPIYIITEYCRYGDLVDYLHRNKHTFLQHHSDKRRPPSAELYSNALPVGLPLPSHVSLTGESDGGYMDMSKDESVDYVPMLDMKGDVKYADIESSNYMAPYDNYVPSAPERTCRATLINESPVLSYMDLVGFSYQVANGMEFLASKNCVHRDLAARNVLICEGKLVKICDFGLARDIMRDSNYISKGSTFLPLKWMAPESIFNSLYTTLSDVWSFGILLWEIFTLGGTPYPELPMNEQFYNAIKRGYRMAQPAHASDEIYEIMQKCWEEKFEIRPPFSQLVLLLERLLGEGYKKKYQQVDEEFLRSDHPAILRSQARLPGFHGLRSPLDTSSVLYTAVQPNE
A value of pIC50 is the negative decimal logarithm of a concentration given in moles per litre.

Illustrative cases are given below, each with its answer.
# get_value(readout='pIC50', item= Cc1ncc(NC(=O)CN2CC(C)(C)C2)cc1NC(=O)c1cnn2cc(-c3c(C)nn(C4COC4)c3C)sc12 [Example 425] )
9.15

Record: Cc1ncc(NC(=O)CCN2CCC3(CC3)C2)cc1NC(=O)c1cnn2cc(-c3cnn(C)c3)sc12 [Example 104]
9.40

Record: Cc1ncc(NC(=O)C(C)N2CCCCCC2)cc1NC(=O)c1cnn2cc(-c3cnn(C)c3)sc12 (stereo not drawn) [Example 306]
9.30

Record: Cc1ncc(C(=O)NCCN2CCCC2(C)C)cc1NC(=O)c1cnn2cc(-c3cncnc3)sc12 [Example 139]
8.28

Record: Cc1ncc(C(=O)NCCN2CCC23CCC3)cc1NC(=O)c1cnn2cc(-c3cn(C)nc3C)sc12 [Example 175]
9.30

Field: next compound
# get_value(readout='pIC50', item= Cc1ncc(NC(=O)CN2CC(C)(C)C2)cc1NC(=O)c1cnn2cc(-c3cnn(C4COC4)c3)sc12 [Example 264] )
9.40

* * *

biological target: PDGFRβ (Rattus norvegicus (Rat), UniProt Q05030); assay: PDGFRβ Cellular Assay (PDGFRb P-Y751 HTRF in A10 cells stimulated with PDGF-BB); type: cell-based; conditions: read-out: PDGFR Cellular IC50
Sequence (Q05030 32-1097): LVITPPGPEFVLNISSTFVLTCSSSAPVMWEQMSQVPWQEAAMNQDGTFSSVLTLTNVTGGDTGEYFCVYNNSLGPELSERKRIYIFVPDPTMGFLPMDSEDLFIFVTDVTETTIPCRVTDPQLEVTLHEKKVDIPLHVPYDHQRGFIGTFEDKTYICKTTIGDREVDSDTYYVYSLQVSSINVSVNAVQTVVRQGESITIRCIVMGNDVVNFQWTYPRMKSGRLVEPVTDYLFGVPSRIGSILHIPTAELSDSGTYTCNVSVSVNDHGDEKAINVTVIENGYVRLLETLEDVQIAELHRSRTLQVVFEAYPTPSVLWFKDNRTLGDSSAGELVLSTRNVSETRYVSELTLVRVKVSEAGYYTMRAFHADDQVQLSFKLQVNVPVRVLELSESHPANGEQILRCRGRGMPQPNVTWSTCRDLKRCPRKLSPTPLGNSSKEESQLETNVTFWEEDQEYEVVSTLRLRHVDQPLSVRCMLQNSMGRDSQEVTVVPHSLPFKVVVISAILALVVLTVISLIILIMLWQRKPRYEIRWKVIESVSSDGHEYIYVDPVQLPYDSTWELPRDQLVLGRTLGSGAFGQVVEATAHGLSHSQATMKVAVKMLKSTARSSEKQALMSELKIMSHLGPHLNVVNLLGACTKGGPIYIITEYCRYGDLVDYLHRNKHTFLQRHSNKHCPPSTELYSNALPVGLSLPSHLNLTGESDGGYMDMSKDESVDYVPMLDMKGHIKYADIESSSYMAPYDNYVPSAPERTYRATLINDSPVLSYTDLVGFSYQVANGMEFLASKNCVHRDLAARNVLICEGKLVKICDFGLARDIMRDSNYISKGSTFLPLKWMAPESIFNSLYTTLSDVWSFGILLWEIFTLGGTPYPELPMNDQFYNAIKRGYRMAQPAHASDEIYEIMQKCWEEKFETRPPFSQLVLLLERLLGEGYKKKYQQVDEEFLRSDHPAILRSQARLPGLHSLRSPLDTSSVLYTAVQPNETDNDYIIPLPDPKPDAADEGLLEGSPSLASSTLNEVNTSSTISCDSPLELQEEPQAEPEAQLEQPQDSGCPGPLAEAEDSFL
readoutKind: log10 of IC50 (log10 of the value in nM)
Annotation: log10 of IC50, nM basis.

Illustrative cases are given below, each with its answer.
Lab note: need log10 of IC50 with PDGFRβ (Rattus norvegicus (Rat), UniProt Q05030) for entry Cc1ncc(C(=O)NCCN2CCCC2(C)C)cc1NC(=O)c1cnn2cc(-c3cnn4c3CCC4)sc12 , please look it up.
0.59

Record: COCCn1cc(-c2cn3ncc(C(=O)Nc4cc(NC(=O)C[C@H]5CCCN5C(C)C)cnc4C)c3s2)cn1
1.54

Record: COCCn1cc(-c2cn3ncc(C(=O)Nc4cc(NC(=O)CCN5CCC6(CC6)C5)cnc4C)c3s2)cn1
1.56

Field: next compound
Lab note: need log10 of IC50 with PDGFRβ (Rattus norvegicus (Rat), UniProt Q05030) for entry Cc1ncc(NC(=O)CN2CCC23CCC3)cc1NC(=O)c1cnn2cc(-c3ccnc(N4CCOCC4)c3)sc12 , please look it up.
0.20

* * *

molecular target: Tb-labeled inactive PDGFRβ (Homo sapiens (Human)); assay: PDGFRβ LanthaScreen Assay; conditions: read-out: PDGFR Lantha IC50
Sequence (P09619 33-1106): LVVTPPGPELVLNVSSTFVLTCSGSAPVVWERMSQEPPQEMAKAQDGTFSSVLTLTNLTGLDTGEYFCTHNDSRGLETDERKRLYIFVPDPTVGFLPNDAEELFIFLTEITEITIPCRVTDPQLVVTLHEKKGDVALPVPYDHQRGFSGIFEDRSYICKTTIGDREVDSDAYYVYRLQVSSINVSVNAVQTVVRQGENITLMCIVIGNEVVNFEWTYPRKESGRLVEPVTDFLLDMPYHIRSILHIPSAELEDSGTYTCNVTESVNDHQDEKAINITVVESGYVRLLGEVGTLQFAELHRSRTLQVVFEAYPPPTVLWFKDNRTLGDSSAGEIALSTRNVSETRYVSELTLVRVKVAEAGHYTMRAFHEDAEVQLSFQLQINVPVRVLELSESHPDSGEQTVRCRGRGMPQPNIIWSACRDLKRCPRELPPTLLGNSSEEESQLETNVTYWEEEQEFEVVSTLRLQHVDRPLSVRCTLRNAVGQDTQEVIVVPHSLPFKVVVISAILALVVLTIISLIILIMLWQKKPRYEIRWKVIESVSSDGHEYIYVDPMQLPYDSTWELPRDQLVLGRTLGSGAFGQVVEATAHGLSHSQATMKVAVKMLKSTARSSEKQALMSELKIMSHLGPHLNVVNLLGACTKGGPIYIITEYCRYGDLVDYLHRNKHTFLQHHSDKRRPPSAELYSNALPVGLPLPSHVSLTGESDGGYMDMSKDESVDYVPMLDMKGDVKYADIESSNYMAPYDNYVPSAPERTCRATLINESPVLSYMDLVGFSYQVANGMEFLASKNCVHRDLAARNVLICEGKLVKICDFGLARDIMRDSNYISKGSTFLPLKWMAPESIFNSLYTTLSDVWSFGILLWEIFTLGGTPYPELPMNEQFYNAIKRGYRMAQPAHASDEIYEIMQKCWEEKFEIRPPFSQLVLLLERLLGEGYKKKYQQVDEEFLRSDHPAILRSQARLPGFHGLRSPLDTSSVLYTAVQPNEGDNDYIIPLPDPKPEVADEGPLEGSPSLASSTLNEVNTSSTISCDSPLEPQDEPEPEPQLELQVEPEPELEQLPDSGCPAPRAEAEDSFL
Parameter: pIC50. Scope: all listed entries.
A value of pIC50 is the negative decimal logarithm of a concentration given in moles per litre.

Illustrative cases are given below, each with its answer.
# get_value(readout='pIC50', item= Cc1ncc(C(=O)NCCN2CCC3(CC3)C2)cc1NC(=O)c1cnn2cc(-c3cnn(C)c3C)sc12 )
8.39

Record: Cc1ncc(NC(=O)CN2CCCCC23CC3)cc1NC(=O)c1cnn2cc(-c3cnn(CCO)c3)sc12
8.14

More entries:
# get_value(readout='pIC50', item= COCCn1cc(-c2cn3ncc(C(=O)Nc4cc(NC(=O)CCN5CCC6(CCC6)C5)cnc4C)c3s2)cn1 )
7.97

Record: COc1ncccc1-c1cn2ncc(C(=O)Nc3cc(NC(=O)OC[C@@H]4CCCN4C)cnc3C)c2s1
8.74

Record: Cc1ncc(C(=O)NCCN2CC3(CCC3)C2)cc1NC(=O)c1cnn2cc(-c3cnn(C)c3)sc12
7.71

Record: Cc1ncc(C(=O)NCCN2CCC3(CC3)C2)cc1NC(=O)c1cnn2cc(-c3ccncc3)sc12
7.74

Record: Cc1ncc(NC(=O)CN2CCCC2(C)C)cc1NC(=O)c1cnn2cc(-c3cn(C)nc3C)sc12
8.74

Record: COCCn1cc(-c2cn3ncc(C(=O)Nc4cc(NC(=O)CN5CCC5C(C)C)cnc4C)c3s2)cn1 (centres unmarked)
8.52

Record: Cc1ncc(NC(=O)CN2CCCCCC2)cc1NC(=O)c1cnn2cc(-c3cnn4c3OCCC4)sc12
8.68

Record: Cc1cnn(C)c1-c1cn2ncc(C(=O)Nc3cc(NC(=O)CN4CC(C)(C)C4)cnc3C)c2s1
8.12

Record: Cc1ncc(C(=O)NCCN2CC(C)(C)C2)cc1NC(=O)c1cnn2cc(-c3cnn4c3COCC4)sc12
8.26

Record: Cc1ncc(NC(=O)CNCC(C)C)cc1NC(=O)c1cnn2cc(-c3cnn4c3CCC4)sc12
8.72

Record: Cc1ncc(C(=O)NCCN2CCCC2)cc1NC(=O)c1cnn2cc(-c3cnn(CCC(O)CO)c3)sc12 (centres unmarked)
7.78

Record: Cc1ncc(NC(=O)CN2CC(C)(C)C2)cc1NC(=O)c1cnn2cc(-c3cc[nH]c3)sc12
8.89
